# measuredOn: UGT1A4 (Homo sapiens, UniProt P22310)
# Sequence (P22310 29-534): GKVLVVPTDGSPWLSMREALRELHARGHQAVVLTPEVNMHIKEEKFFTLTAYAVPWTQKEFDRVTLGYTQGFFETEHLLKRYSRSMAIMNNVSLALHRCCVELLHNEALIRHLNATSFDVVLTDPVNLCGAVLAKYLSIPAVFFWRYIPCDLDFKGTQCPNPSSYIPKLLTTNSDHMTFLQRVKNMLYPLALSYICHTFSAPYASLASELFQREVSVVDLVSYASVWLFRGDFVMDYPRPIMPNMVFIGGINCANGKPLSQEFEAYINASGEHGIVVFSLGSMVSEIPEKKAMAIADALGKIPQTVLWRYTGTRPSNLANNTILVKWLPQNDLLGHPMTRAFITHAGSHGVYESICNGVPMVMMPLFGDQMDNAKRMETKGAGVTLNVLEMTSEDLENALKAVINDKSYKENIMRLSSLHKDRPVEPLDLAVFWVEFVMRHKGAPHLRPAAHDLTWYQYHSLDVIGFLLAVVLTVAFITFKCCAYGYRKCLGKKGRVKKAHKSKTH
# assayExplanation: biochemical
pIC50: −log10 of the molar value.

moleculeSmiles	pIC50
C[C@@H]1CC[C@@]2(OC1)O[C@H]1C[C@H]3[C@@H]4CC[C@H]5C[C@@H](O)CC[C@]5(C)[C@H]4CC(=O)[C@]3(C)[C@H]1[C@@H]2C	5.68

###

# measuredOn: OATP1B3 (Homo sapiens)

moleculeSmiles	Ki, µM
C[C@H](CCC(=O)O)[C@H]1CC[C@H]2[C@@H]3[C@H](O)C[C@@H]4C[C@H](O)CC[C@]4(C)[C@H]3C[C@H](O)[C@]12C	38.2

###

# measuredOn: OATP1B3 (Homo sapiens)
# Sequence (Q9NPD5 1-702): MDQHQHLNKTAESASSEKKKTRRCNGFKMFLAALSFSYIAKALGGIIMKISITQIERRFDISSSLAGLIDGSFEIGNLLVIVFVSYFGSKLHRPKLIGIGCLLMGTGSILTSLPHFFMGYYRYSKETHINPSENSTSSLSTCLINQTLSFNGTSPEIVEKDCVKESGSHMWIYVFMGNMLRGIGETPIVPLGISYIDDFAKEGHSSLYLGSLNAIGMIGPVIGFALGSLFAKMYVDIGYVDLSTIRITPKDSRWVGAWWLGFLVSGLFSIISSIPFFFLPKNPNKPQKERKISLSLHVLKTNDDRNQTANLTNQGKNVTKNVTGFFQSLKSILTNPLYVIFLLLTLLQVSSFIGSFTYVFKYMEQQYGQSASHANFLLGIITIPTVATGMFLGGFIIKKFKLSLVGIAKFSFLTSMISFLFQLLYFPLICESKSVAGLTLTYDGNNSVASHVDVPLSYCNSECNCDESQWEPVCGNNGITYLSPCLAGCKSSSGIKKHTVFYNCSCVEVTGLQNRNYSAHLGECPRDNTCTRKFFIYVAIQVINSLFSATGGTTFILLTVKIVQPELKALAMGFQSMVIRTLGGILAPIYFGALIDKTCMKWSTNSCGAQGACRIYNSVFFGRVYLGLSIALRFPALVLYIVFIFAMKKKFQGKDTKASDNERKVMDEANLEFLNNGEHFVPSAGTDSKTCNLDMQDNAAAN
# assayExplanation: in vitro
# particulars: human, Km, OATP1B3-mediated MT921 uptake, 5–100 µM, modified Michaelis–Menten fit
metric: Km at 10 min (µM)

compound	numericReadout
C[C@H](CCC(=O)O)[C@H]1CC[C@H]2[C@@H]3[C@H](O)C[C@@H]4C[C@H](O)CC[C@]4(C)[C@H]3C[C@H](O)[C@]12C [MT921, cholic acid]	27.4

###

# measuredOn: CYP2E1 (Homo sapiens, UniProt P05181)
# Sequence (P05181 whole entry): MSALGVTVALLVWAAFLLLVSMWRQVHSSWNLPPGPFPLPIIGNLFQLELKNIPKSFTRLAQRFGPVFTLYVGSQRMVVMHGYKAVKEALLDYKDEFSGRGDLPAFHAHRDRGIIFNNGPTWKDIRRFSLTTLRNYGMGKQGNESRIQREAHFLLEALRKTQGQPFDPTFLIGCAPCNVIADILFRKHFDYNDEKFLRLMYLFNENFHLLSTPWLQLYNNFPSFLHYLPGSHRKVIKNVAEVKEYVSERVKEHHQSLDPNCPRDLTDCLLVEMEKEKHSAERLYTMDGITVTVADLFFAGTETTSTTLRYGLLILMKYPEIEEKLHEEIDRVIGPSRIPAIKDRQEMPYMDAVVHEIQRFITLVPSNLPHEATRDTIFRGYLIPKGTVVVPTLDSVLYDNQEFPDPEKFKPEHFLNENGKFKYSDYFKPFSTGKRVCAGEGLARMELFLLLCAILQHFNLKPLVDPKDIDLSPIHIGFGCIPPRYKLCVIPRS

molecule	IC50, µM
CCN(CC)C(=S)S [Diethyldithio-carbamate]	16.7
